Tested System: Caspase-9 (Homo sapiens, UniProt P55211)
Construct: purchased BioVision K159-100
Sequence (P55211 1-315 limits assumed): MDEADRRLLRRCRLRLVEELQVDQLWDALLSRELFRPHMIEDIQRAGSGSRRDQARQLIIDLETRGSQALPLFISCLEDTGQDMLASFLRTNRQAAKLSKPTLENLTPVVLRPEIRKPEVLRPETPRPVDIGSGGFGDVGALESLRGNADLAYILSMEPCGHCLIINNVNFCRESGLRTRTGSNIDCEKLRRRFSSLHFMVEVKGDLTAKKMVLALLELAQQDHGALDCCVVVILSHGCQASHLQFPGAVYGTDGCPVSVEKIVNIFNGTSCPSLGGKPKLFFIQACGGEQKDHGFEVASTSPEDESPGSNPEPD
Sequence (P55211 331-416 limits assumed): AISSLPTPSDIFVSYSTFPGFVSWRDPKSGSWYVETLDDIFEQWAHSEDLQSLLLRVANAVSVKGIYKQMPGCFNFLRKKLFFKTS
Procedure Text: Caspase-9 inhibitor screening assay (BioVision kit, LEHD-AFC)
Format: biochemical
Reported Conditions: 10 uM; read-out: % Inhibition at 10 uM Casp9
Where a name gives a salt, the structure may show the parent alone.
Quantity Kind: inhibition at 10 µM
Field: value (include unit after the number)

input: # inhibition at 10 µM lookup, item CS(=O)(=O)/C=C/[C@H](CC(=O)O)NC(=O)[C@H](CCC(=O)O)NC(=O)c1ccc2ccccc2n1 [Compound 18]
output: 0%

input: Another molecule to look at: CC(C)(C)[C@H](NC(=O)c1ccc2ccccc2n1)C(=O)N1CC[C@@H]1C(=O)N[C@H](/C=C/S(C)(=O)=O)CC(=O)O [Compound 20]
output: 8%

input: Then CC(C)(C)[C@H](NC(=O)c1ccc(N)c(Cl)c1)C(=O)N1CCCC1C(=O)N[C@H](/C=C/S(C)(=O)=O)CC(=O)O (stereo in doubt) [Compound 14] ?
output: 77%

input: Follow-up item: CC(C)[C@H](NC(=O)[C@H](CCC(=O)O)NC(=O)[C@H](Cc1c[nH]c2ccccc12)NC(=O)OCc1ccccc1)C(=O)N[C@H](/C=C/S(C)(=O)=O)CC(=O)O [Compound 40, Z-Trp-Glu-Val-Asp-methyl vinyl sulfone]
output: 87%

input: Try this molecule too: CS(=O)(=O)/C=C/[C@H](CC(=O)O)NC(=O)[C@@H](N)CCC(=O)O [Compound 22, Glu-Asp methylsulfone]
output: 2%

input: Repeat for the following molecule: CCOC(=O)/C=C/[C@@H](N)CC(=O)O [Compound 44, Asp ethyl vinyl ester tosyl salt]
output: 0%

input: Follow-up entry: CC(C)(C)[C@@H](NC(=O)[C@H](CC(=O)O)NC(=O)OCc1ccccc1)C(=O)N1CC[C@@H]1C(=O)N[C@H](/C=C/S(C)(=O)=O)CC(=O)O [Compound 32]
output: 91%

input: Now the molecule CC(C)[C@H](NC(=O)c1ccc2ccccc2n1)C(=O)N[C@H](/C=C/S(C)(=O)=O)CC(=O)O [Compound 16]
output: 0%

----------
Tested System: Caspase-7 (Homo sapiens)
Construct: mixing the compounds with the respective active caspases; purchased BioVision K157-100
Sequence (P55210 24-198 limits assumed): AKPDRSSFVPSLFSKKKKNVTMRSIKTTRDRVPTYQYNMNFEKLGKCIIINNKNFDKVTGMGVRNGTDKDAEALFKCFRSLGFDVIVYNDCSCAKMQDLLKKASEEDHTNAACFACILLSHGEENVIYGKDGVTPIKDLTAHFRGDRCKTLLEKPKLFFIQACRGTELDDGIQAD
Sequence (P55210 207-303 limits assumed): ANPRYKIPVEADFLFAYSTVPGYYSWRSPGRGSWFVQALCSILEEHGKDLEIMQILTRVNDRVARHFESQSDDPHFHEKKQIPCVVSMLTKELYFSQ
Procedure Text: Caspase-7 inhibitor screening assay (BioVision kit, DEVD-AFC)
Format: biochemical
Reported Conditions: read-out: IC50 Casp7
Kindly state pIC50 for each of the entries shown.
For clarity, pIC50 is expressed as the negative log10 of concentration in mol/L.

input: What reported pIC50 corresponds to CC(C)[C@H](NC(=O)[C@H](CCC(=O)O)NC(=O)[C@H](Cc1c[nH]c2ccccc12)NC(=O)OCc1ccccc1)C(=O)N[C@H](/C=C/S(C)(=O)=O)CC(=O)O [Compound 40, Z-Trp-Glu-Val-Asp-methyl vinyl sulfone] on Caspase-7 (Homo sapiens)?
output: 4.63

input: One more compound: CC(C)(C)[C@H](NC(=O)[C@H](CC(=O)O)NC(=O)OCc1ccccc1)C(=O)N1CCCC1C(=O)N[C@H](/C=C/S(C)(=O)=O)CC(=O)O (stereo in doubt) [Compound 26, Z-Asp-t-Leu-Pro-Asp-methyl vinyl sulfone]
output: 6.42

input: Check CS(=O)(=O)/C=C/[C@H](CC(=O)O)NC(=O)[C@H]1CCCN1C(=O)[C@@H](NC(=O)[C@H](CC(=O)O)NC(=O)OCc1ccccc1)c1ccccc1 [Compound 30] too.
output: 5.21

input: Next: CC(C)[C@H](NC(=O)[C@H](Cc1cn(C)c2ccccc12)NC(=O)[C@H](CC(=O)O)NC(=O)OCc1ccccc1)C(=O)N[C@H](/C=C/S(C)(=O)=O)CC(=O)O [Compound 36]
output: 6.07

input: Check CC(C)[C@H](NC(=O)OCc1ccccc1)C(=O)N[C@H](/C=C(\Cl)S(C)(=O)=O)CC(=O)O [Compound 2] too.
output: 4.19

input: Same again, this time with CS(=O)(=O)/C=C/[C@H](CC(=O)O)NC(=O)C1CCCN1C(=O)[C@@H](NC(=O)[C@H](CC(=O)O)NC(=O)OCc1ccccc1)C1CC1 (stereo in doubt) [Compound 28]
output: 5.60

input: One more compound: CC(C)(C)[C@H](NC(=O)c1ccc(N)c(Cl)c1)C(=O)N1CCCC1C(=O)N[C@H](/C=C/S(C)(=O)=O)CC(=O)O (stereo in doubt) [Compound 14]
output: 4.61

input: Entry to check: CC(C)(C)[C@H](NC(=O)c1ccc2ncccc2c1)C(=O)N1CCCC1C(=O)N[C@H](/C=C/S(C)(=O)=O)CC(=O)O (stereo in doubt) [Compound 10]
output: 4.27

input: Now the same for CCOC(=O)/C=C/[C@H](CC(=O)O)NC(=O)[C@@H](NC(=O)[C@@H](NC(=O)[C@H](CC(=O)O)NC(=O)OCc1ccccc1)c1ccccc1)C(C)C [Compound 105, Z-Asp-Phg-Val-Asp Ethyl Vinyl Ester]
output: 6.82

input: Can you check CCOC(=O)/C=C/[C@H](CC(=O)O)NC(=O)[C@H]1CCCN1C(=O)[C@@H](NC(=O)c1ccc(N)c(Cl)c1)C(C)(C)C [Compound 116] next?
output: 5.44

----------
Kindly supply the reported pIC50 values for the records listed here.
Tested System: Caspase-3 (Homo sapiens)
Construct: mixing the compounds with the respective active caspases; purchased BioVision K153-100
Sequence (P42574 29-175 limits assumed): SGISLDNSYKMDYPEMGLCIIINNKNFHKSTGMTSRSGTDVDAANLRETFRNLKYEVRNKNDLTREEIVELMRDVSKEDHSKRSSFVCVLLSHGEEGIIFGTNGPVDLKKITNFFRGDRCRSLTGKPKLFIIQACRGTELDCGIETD
Sequence (P42574 176-277 limits assumed): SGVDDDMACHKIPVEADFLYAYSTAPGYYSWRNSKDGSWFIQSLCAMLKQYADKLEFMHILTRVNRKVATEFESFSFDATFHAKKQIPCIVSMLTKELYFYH
Procedure Text: Caspase-3 inhibitor screening assay (BioVision kit, DEVD-AFC)
Format: biochemical
Reported Conditions: read-out: IC50 Casp3
Excerpt: […]
Remember, pIC50 is on a log scale: it is -log10 of the molar concentration.

input: Requested field: pIC50. Item: CCOC(=O)/C=C/[C@H](CC(=O)O)NC(=O)[C@H]1CCCN1C(=O)[C@@H](NC(=O)c1ccc(N)c(Cl)c1)C(C)(C)C
output: 4.48

input: // repeat for CCOC(=O)/C=C/[C@H](CC(=O)O)NC(=O)[C@@H](NC(=O)[C@H](CCC(=O)O)NC(=O)[C@@H](NC(=O)OCc1ccccc1)C(C)C)C(C)CC (stereo partly drawn) and report
output: 6.24

----------
Tested System: Caspase-4 (Homo sapiens)
Construct: mixing the compounds with the respective active caspases; purchased BioVision K154-100
Sequence (P49662 81-270 limits assumed): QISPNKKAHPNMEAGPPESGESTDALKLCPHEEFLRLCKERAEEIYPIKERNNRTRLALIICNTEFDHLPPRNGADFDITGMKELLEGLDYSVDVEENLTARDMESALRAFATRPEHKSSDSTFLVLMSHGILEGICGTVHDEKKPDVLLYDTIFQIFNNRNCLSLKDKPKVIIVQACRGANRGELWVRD
Sequence (P49662 290-377 limits assumed): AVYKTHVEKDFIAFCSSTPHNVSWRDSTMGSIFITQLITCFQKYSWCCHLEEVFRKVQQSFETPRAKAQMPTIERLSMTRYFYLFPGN
Procedure Text: Caspase-4 inhibitor screening assay (BioVision kit, LEVD-AFC)
Format: biochemical
Reported Conditions: read-out: IC50 Casp4
Consider the following compounds; for each one, report its IC50.
Give the value in µM but do not write µM after it.

input: Looking for the measured IC50 of CC(C)[C@H](NC(=O)[C@@H](N)Cc1ccc(O)cc1)C(=O)N[C@@H](C)C(=O)N[C@H](/C=C/S(C)(=O)=O)CC(=O)O , can you help?
output: 17.1

input: And the next one, CC(C)(C)[C@H](NC(=O)c1ccc(N)c(Cl)c1)C(=O)N1CCCC1C(=O)N[C@H](/C=C/S(C)(=O)=O)CC(=O)O (stereo in doubt) ?
output: 0.09

input: For CCOC(=O)/C=C/[C@H](CC(=O)O)NC(=O)[C@@H](NC(=O)[C@@H](NC(=O)[C@H](CC(=O)O)NC(=O)OCc1ccccc1)c1ccccc1)C(C)C then?
output: 0.51

input: Input CC(C)(C)[C@H](NC(=O)c1ccc2ccccc2n1)C(=O)N1CC[C@@H]1C(=O)N[C@H](/C=C/S(C)(=O)=O)CC(=O)O
output: 1.56

input: # iterate: CCOC(=O)/C(Cl)=C/[C@H](CC(=O)O)NC(=O)[C@H]1CCCN1C(=O)[C@@H](NC(=O)c1ccc(N)c(Cl)c1)C(C)(C)C
output: 0.07

input: What do we get for CS(=O)(=O)/C=C/[C@H](CC(=O)O)NC(=O)C1CCCN1C(=O)[C@@H](NC(=O)[C@H](CC(=O)O)NC(=O)OCc1ccccc1)C1CC1 (stereo in doubt) ?
output: 5.22

----------
Tested System: Caspase-10 (Homo sapiens)
Construct: mixing the compounds with the respective active caspases; purchased BioVision K160-100
Sequence (Q92851 220-415 limits assumed): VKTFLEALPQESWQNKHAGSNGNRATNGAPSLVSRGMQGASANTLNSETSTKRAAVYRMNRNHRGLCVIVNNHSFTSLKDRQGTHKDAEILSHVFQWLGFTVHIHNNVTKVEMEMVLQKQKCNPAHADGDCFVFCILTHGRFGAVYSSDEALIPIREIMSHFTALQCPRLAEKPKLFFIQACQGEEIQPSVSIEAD
Sequence (Q92851 416-521 limits assumed): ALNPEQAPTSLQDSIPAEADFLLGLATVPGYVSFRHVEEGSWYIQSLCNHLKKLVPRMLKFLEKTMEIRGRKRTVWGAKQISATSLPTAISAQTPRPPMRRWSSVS
Procedure Text: Caspase-10 inhibitor screening assay (BioVision kit, AEVD-AFC)
Format: biochemical
Reported Conditions: 10 uM; read-out: % Inhibition at 10 uM Casp10
Quantity Kind: inhibition at 10 µM (%)
Numbers only here, please. The scale is %.

input: Fill in: inhibition at 10 µM of CC(C)[C@H](NC(=O)[C@H](Cc1cn(C)c2ccccc12)NC(=O)[C@H](CC(=O)O)NC(=O)OCc1ccccc1)C(=O)N[C@H](/C=C/S(C)(=O)=O)CC(=O)O is ___
output: 31

input: Request: CC(C)(C)[C@H](NC(=O)c1ccc2ncccc2n1)C(=O)N1CCCC1C(=O)N[C@H](/C=C/S(C)(=O)=O)CC(=O)O (stereo in doubt)
output: 27

input: Same lookup for CC(C)[C@H](NC(=O)[C@H](CCC(=O)O)NC(=O)[C@H](Cc1c[nH]c2ccccc12)NC(=O)OCc1ccccc1)C(=O)N[C@H](/C=C/S(C)(=O)=O)CC(=O)O , please.
output: 80

input: Also CC(C)[C@H](NC(=O)[C@@H](N)Cc1ccc(O)cc1)C(=O)N[C@@H](C)C(=O)N[C@H](/C=C/S(C)(=O)=O)CC(=O)O ?
output: 13

input: Try CCOC(=O)/C=C/[C@H](CC(=O)O)NC(=O)[C@H]1CCCN1C(=O)[C@@H](NC(=O)c1ccc2ccccc2n1)C(C)(C)C next.
output: 59

input: Now the same for CC(C)[C@H](NC(=O)OCc1ccccc1)C(=O)N[C@H](/C=C(\Cl)S(C)(=O)=O)CC(=O)O
output: 0

input: Now consider CC(C)(C)[C@H](NC(=O)c1ccc(N)c(Cl)c1)C(=O)N1CCCC1C(=O)N[C@H](/C=C/S(C)(=O)=O)CC(=O)O (stereo in doubt) and answer again.
output: 81

input: Param item: CC(C)(C)[C@H](NC(=O)c1ccc2ncccc2c1)C(=O)N1CCCC1C(=O)N[C@H](/C=C/S(C)(=O)=O)CC(=O)O (stereo in doubt)
output: 65

input: # iterate: CCC(C)[C@H](NC(=O)[C@H](CCC(=O)O)NC(=O)[C@@H](NC(=O)OCc1ccccc1)C(C)C)C(=O)N[C@H](/C=C/S(C)(=O)=O)CC(=O)O (stereo partly shown)
output: 100

input: Also CC(C)(C)[C@H](NC(=O)c1ccc2ccccc2n1)C(=O)N1CC[C@@H]1C(=O)N[C@H](/C=C/S(C)(=O)=O)CC(=O)O ?
output: 42

input: Moving on to CS(=O)(=O)/C=C/[C@H](CC(=O)O)NC(=O)[C@H](CCC(=O)O)NC(=O)c1ccc2ccccc2n1
output: 14

input: Same thing, different molecule: CC(C)(C)[C@H](NC(=O)[C@H](CC(=O)O)NC(=O)OCc1ccccc1)C(=O)N1CCCC1C(=O)N[C@H](/C=C/S(C)(=O)=O)CC(=O)O (stereo in doubt)
output: 99

input: Now this one: CS(=O)(=O)/C=C/[C@H](CC(=O)O)NC(=O)[C@H]1CCC(=O)N1
output: 21
